The reported numbers originate from patent US8445676B2.

- study-system: JAK2 (Homo sapiens, UniProt O60674)
- Sequence (O60674 whole entry): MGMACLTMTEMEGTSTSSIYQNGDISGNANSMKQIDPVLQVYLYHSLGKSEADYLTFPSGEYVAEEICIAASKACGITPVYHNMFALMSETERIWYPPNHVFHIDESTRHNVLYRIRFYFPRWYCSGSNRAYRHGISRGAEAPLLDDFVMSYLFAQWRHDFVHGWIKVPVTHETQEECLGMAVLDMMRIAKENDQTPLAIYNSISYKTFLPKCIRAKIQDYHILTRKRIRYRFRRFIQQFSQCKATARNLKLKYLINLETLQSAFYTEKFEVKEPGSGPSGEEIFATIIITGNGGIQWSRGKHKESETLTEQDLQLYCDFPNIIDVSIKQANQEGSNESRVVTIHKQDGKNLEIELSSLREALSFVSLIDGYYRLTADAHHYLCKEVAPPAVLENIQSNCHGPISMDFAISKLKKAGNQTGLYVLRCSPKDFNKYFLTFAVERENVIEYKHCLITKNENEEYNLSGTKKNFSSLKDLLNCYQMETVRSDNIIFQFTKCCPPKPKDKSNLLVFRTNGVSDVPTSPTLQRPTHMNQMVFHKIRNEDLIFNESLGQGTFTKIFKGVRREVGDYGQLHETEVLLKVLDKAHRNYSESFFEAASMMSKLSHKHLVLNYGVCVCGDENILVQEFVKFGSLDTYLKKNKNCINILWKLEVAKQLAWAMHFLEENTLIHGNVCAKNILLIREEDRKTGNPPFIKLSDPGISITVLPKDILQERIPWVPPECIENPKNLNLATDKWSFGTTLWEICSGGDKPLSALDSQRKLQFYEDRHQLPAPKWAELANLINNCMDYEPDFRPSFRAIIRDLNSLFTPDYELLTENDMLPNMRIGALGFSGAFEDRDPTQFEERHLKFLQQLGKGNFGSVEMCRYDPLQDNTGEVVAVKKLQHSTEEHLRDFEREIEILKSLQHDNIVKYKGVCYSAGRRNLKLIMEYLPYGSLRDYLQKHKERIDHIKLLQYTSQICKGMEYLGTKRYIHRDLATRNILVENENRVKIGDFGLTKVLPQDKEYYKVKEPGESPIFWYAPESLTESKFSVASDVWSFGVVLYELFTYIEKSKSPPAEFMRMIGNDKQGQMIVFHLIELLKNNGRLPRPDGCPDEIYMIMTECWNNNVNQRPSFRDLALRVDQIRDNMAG
- assay-info: JAK2 Tyrosine Kinase Assay
- Assay type: biochemical
- details: ATP 30 μM; JAK2 1 nM; 60 min room temperature; read-out: Jak2(IC50)
Assign labels as follows, please: y for IC50 below 8 nM; n for IC50 equal to or exceeding 8 nM.

Ask | Strictly below 8 nM: is that where IC50 of `Cc1cc(Nc2nc(N3CCN(C(=O)C(C)(C)N(C)C(=O)OC(C)(C)C)CC3)nn3cccc23)n[nH]1` sits?
Reply | n

Ask | Strictly below 8 nM: is that where IC50 of `Cc1cc(Nc2nc(N3CCN(C(=O)C(C)(C)C)CC3)nn3cccc23)n[nH]1` sits?
Reply | y

Ask | Strictly below 8 nM: is that where IC50 of `Cc1cc(Nc2nc(N3CCN(C(=O)Cc4cccc(C(F)(F)F)c4)CC3)nn3cccc23)n[nH]1` sits?
Reply | y

Ask | Strictly below 8 nM: is that where IC50 of `Cc1ccc(C2(C(=O)N3CCN(c4nc(Nc5cc(C)[nH]n5)c5cccn5n4)CC3)CC2)cc1` sits?
Reply | y

Ask | Strictly below 8 nM: is that where IC50 of `Cc1cc(Nc2nc(N3CCN(C(=O)C(C)(C)NC(=O)OC(C)(C)C)CC3)nn3cccc23)n[nH]1` sits?
Reply | n

Ask | Strictly below 8 nM: is that where IC50 of `Cc1cc(Nc2nc(N3CCN(C(=O)c4ccns4)CC3)nn3cccc23)n[nH]1` sits?
Reply | y

Ask | Strictly below 8 nM: is that where IC50 of `COc1ccc(CC(=O)N2CCN(c3nc(Nc4cc(C)[nH]n4)c4cccn4n3)CC2)cc1` sits?
Reply | y

Ask | Strictly below 8 nM: is that where IC50 of `Cc1cc(Nc2nc(N3CCN(C(=O)Cc4ccc(F)cc4F)CC3)nn3cccc23)n[nH]1` sits?
Reply | y
